Test system: human tryptase-like protein
assay-text: Enzyme activity with fluorogenic substrates (substrate specificity)
Format: biochemical
applied-conditions: Substrate 100 µM; 0.1 M Tris-HCl pH 7.8, 25 mM calcium chloride
Starred links: 1 amine or outer side, 2 acyl side, 3 side chain; linkers in the order of their positions; H or OH if unused. Residues, ends and D or L forms follow the SMILES beside them. *: point of attachment. AMC = Cc1cc(=O)oc2cc(N*)ccc12; Suc = O=C(CCC(=O)[*:2])[*:1]; Boc = CC(C)(C)OC(=O)*
quantity-kind: Activity (µU/ml)
State the answer as a number, implicitly in µU/ml.

Cc1cc(=O)oc2cc(NC(=O)[C@H](CCCNC(=N)N)NC(=O)[C@H](CCCNC(=N)N)NC(=O)[C@H](CCC(N)=O)NC(=O)OC(C)(C)C)ccc12 [Boc-Gln-Arg-Arg-MCA] (Boc-Gln-Arg-Arg-{AMC}) ... 177.5
Cc1cc(=O)oc2cc(NC(=O)[C@H](Cc3ccccc3)NC(=O)[C@@H]3CCCN3C(=O)[C@H](C)NC(=O)[C@H](C)NC(=O)CCC(=O)O)ccc12 [Suc-Ala-Ala-Pro-Phe-MCA] (Suc-AAPF-{AMC}) ... 110.9
Cc1cc(=O)oc2cc(NC(=O)[C@H](CCCNC(=N)N)NC(=O)[C@H](Cc3ccccc3)NC(=O)[C@@H]3CCCN3)ccc12 [Pro-Phe-Arg-MCA] (H-Pro-Phe-Arg-{AMC}) ... 155.3

Task item: Activity lookup needed for Cc1cc(=O)oc2cc(NC(=O)[C@H](CCCNC(=N)N)NC(=O)[C@@H]3CCCN3C(=O)CNC(=O)[C@H](C)NC(=O)OC(C)(C)C)ccc12 [Boc-Ala-Gly-Pro-Arg-MCA] (Boc-AGPR-{AMC}) , thanks.
Reply: 199.7

Task item: Form field: reported Activity of Cc1cc(=O)oc2cc(NC(=O)[C@H](Cc3ccc(O)cc3)NC(=O)[C@@H](NC(=O)[C@H](CC(C)C)NC(=O)[C@H](CC(C)C)NC(=O)CCC(=O)O)C(C)C)ccc12 [Suc-Leu-Leu-Val-Tyr-MCA] (Suc-LLVY-{AMC})
Reply: 244.1

====

Tested on: human tryptase-like protein
assay-text: Effects of inhibitors on the trypsin-like activity
Assay type: biochemical
applied-conditions: 10 µM inhibitor; substrate Boc-Gln-Gly-Arg-MCA; control 843.1
The molecules listed here are annotated with their Activity.
Write the value in µU/ml as a bare number.

CC(=O)N[C@@H](CC(C)C)C(=O)N[C@@H](CC(C)C)C(=O)N[C@H](C=O)CCCNC(=N)N ... 110.9
N=C(N)c1ccccc1 ... 817.8
CC(C)C[C@H](NC(=O)[C@@H](NC(=O)N[C@@H](Cc1ccccc1)C(=O)O)[C@@H]1CCN=C(N)N1)C(=O)N[C@H](C=O)Cc1ccccc1 ... 443.8
O=S(=O)(F)Cc1ccccc1 [PMSF, phenylmethylsulfonyl fluoride] ... 732.2

Task item: What value of Activity has been reported for the following molecule? CC(C)C[C@@H](N)[C@H](O)C(=O)N[C@H](C(=O)N[C@H](C(=O)N[C@@H](CC(=O)O)C(=O)O)C(C)C)C(C)C
Reply: 767.2

Task item: Given the molecule CC(C)C[C@H](NP(=O)(O)O[C@@H]1O[C@@H](C)[C@H](O)[C@@H](O)[C@H]1O)C(=O)N[C@@H](Cc1c[nH]c2ccccc12)C(=O)O , what is its reported Activity?
Reply: 820.9

Provenance of the data: patent EP0419292A1
